Data provenance is patent US8022225B2.

- SYSTEM_TESTED: human Edg-1(S1P1) (Homo sapiens)
- Construct: expressed in transfected cells; host or cells: HEK-293
- Sequence (P21453 whole entry): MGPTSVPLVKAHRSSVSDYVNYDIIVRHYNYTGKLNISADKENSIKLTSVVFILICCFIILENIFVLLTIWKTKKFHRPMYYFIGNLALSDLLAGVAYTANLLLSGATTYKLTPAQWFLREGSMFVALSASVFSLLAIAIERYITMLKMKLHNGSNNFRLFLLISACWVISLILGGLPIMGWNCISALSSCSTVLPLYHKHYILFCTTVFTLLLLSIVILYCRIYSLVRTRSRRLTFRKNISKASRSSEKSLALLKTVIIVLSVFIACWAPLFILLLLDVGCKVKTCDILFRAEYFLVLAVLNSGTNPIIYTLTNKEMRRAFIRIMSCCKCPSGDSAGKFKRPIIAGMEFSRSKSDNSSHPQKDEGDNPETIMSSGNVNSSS
- TEST_METHOD_NOTES: Cell system binding test: inhibition of [3H]-S1P binding to Edg-1(S1P1) gene transferred HEK-293 cells
- CONDITION_SUMMARY: 10 μM compound, [3H]-S1P 10 nM, read-out: Cell system binding test % inhibition (10 μM)
REPORTED_PROPERTY: inhibition at 10 µM (%)
Please give a number only; it is taken to be in %.

Below, 7 molecules whose answers are already recorded.
MOLECULE: CCn1c(OC2CCCC2)nnc1[C@@H](C)NS(=O)(=O)c1ccc(Cl)cc1
inhibition at 10 µM, %: 97.8
//
MOLECULE: CCn1c(SC/C=C/c2ccccc2)nnc1[C@@H](C)NS(=O)(=O)c1ccc(Cl)cc1
inhibition at 10 µM, %: 91.5
//
MOLECULE: CCn1c(OC)nnc1[C@@H](C)NS(=O)(=O)c1cccc2c(N(C)C)cccc12
inhibition at 10 µM, %: 101
//
MOLECULE: CCn1c(OC)nnc1[C@@H](C)NS(=O)(=O)c1cc(S(=O)(=O)c2ccccc2)cs1
inhibition at 10 µM, %: 88.7
//
MOLECULE: CCn1c(OC)nnc1[C@@H](C)NS(=O)(=O)c1cccc(Br)c1
inhibition at 10 µM, %: 103
//
MOLECULE: CCn1c(OC)nnc1[C@@H](C)NS(=O)(=O)CCCCl
inhibition at 10 µM, %: 91.8
//
MOLECULE: C=CCSc1nnc([C@@H](C)NS(=O)(=O)c2ccc(Cl)cc2)n1C(C)C
inhibition at 10 µM, %: 88.9

Now turn to the next molecule.
Which value of inhibition at 10 µM has been reported for CCn1c(SC2CCc3ccccc32)nnc1[C@@H](C)NS(=O)(=O)c1ccc(Cl)cc1 (some centres unmarked) in the records? 91.2

###

- SYSTEM_TESTED: human Edg-1(S1P1) (Homo sapiens)
- Construct: expressed in transfected cells; host or cells: HEK-293
- TEST_METHOD_NOTES: Cell system binding test: inhibition of [3H]-S1P binding to Edg-1(S1P1) gene transferred HEK-293 cells
- CONDITION_SUMMARY: test compound 10^-5 M, [3H]-S1P 10 nM, 1 hour, read-out: Edg-1(S1P1) binding inhibition rate (cell system binding test)
Parameter: inhibition at 10 µM. Scope: all listed entries.
Please give a number only; it is taken to be in %.

Below, 8 molecules whose answers are already recorded.
SMILES_INPUT: CCn1c(OCC(F)(F)F)nnc1[C@@H](C)NS(=O)(=O)c1ccc(Br)cc1
OUTPUT_UNIT: %
QUANTITATIVE_RESULT: 104
//
SMILES_INPUT: CCn1c(OC(C)C)nnc1[C@@H](C)NS(=O)(=O)c1ccc(C(F)(F)F)cc1
OUTPUT_UNIT: %
QUANTITATIVE_RESULT: 95.1
//
SMILES_INPUT: CCn1c(OCC(F)(F)F)nnc1[C@@H](C)NS(=O)(=O)c1cc(F)cc(F)c1
OUTPUT_UNIT: %
QUANTITATIVE_RESULT: 102
//
SMILES_INPUT: CCn1c(OC)nnc1[C@@H](COC)NS(=O)(=O)c1ccc(Cl)cc1
OUTPUT_UNIT: %
QUANTITATIVE_RESULT: 89.9
//
SMILES_INPUT: CCCn1c(OC)nnc1[C@@H](C)NS(=O)(=O)c1ccc(Cl)cc1
OUTPUT_UNIT: %
QUANTITATIVE_RESULT: 97.1
//
SMILES_INPUT: CCn1c(OCC(F)(F)F)nnc1[C@@H](C)NS(=O)(=O)c1cccc(OC(F)(F)F)c1
OUTPUT_UNIT: %
QUANTITATIVE_RESULT: 96.6
//
SMILES_INPUT: CCn1c(OCC(F)(F)F)nnc1[C@@H](C)NS(=O)(=O)c1ccc(Br)s1
OUTPUT_UNIT: %
QUANTITATIVE_RESULT: 102
//
SMILES_INPUT: CCc1ccc(S(=O)(=O)N[C@H](C)c2nnc(OC(C)C)n2CC)cc1
OUTPUT_UNIT: %
QUANTITATIVE_RESULT: 93.1

Now turn to the next molecule.
Given the entry CCn1c(OC(C)C)nnc1[C@@H](C)NS(=O)(=O)c1ccc(F)cc1 , what inhibition at 10 µM was observed with human Edg-1(S1P1) (Homo sapiens)? 92
